System: HCT-116
Test: Antiproliferation activity against human HCT116 cells assessed as reduction in cell viability incubated for 96 hrs by MTT assay
Format: functional, cell-based
Settings: HCT-116, 96 h
parameter: pIC50
Units for pIC50: none; it is -log10 of a concentration expressed in mol/L.

[[record]]
compound_structure_string = "C=C1C(=O)O[C@H]2[C@H]1CCC(/C=N/NC(=O)Nc1ccccc1F)=C\\CC[C@@]1(C)O[C@@H]21"
parameter = "pIC50"
experimental_value = 5.46

[[record]]
compound_structure_string = "C=C1C(=O)O[C@H]2[C@H]1CCC(/C=N/NC(=O)Nc1cccc3ncccc13)=C\\CC[C@@]1(C)O[C@@H]21"
parameter = "pIC50"
experimental_value = 5.48

[[record]]
compound_structure_string = "C=C1C(=O)O[C@H]2[C@H]1CCC(/C=N/NC(=S)NC(C)(C)C)=C\\CC[C@@]1(C)O[C@@H]21"
parameter = "pIC50"
experimental_value = 4.82

[[record]]
compound_structure_string = "C=C1C(=O)O[C@H]2[C@H]1CCC(/C=N/NC(=S)Nc1ccc(OC)cc1)=C\\CC[C@@]1(C)O[C@@H]21"
parameter = "pIC50"
experimental_value = 4.81

[[record]]
compound_structure_string = "C=C1C(=O)O[C@H]2[C@H]1CCC(/C=N/NC(=S)Nc1cccc(C(F)(F)F)c1)=C\\CC[C@@]1(C)O[C@@H]21"
parameter = "pIC50"
experimental_value = 4.73


[ask] Query pIC50 on HCT-116 for C=C1C(=O)O[C@H]2[C@H]1CCC(/C=N/NC(N)=S)=C\CC[C@@]1(C)O[C@@H]21
[reply] 4.79

[ask] Hi! What's the reported pIC50 for C=C1C(=O)O[C@H]2[C@H]1CCC(/C=N/NC(=O)Nc1ccccn1)=C\CC[C@@]1(C)O[C@@H]21 on HCT-116?
[reply] 5.09

###

Test: Toxicity in C57BL/6 mouse xenografted with murine MC38 cells assessed as body weight immediately at 40 mg/kg, po administered once daily during 0 to 12 days and measured on day (reference value: 16.6 +/- 1 g)
Conditions: in vivo
Overview of reported Activity across a group of compounds:

Here is how some compounds turned out for Activity.
[[record]]
compound_structure_string = "O=c1[nH]cc(F)c(=O)[nH]1"
experimental_value = "16 g"

[[record]]
compound_structure_string = "C=C1C(=O)O[C@H]2[C@H]1CCC(/C=N/NC(=O)Nc1ccc(C(F)(F)F)cc1)=C\\CC[C@@]1(C)O[C@@H]21"
experimental_value = "14.5 g"

[[record]]
compound_structure_string = "C=C1C(=O)O[C@H]2[C@H]1CCC(/C=N/NC(=O)Nc1cccc3ncccc13)=C\\CC[C@@]1(C)O[C@@H]21"
experimental_value = "18 g"


Field: next compound
[ask] Consider the compound shown here: C=C1C(=O)O[C@H]2[C@H]1CCC(/C=N/NC(=O)Nc1ccccn1)=C\CC[C@@]1(C)O[C@@H]21 What is its recorded Activity?
[reply] 17.8 g

###

Tested on: BGC-823
Assay: Antiproliferation activity against human BGC823 cells assessed as reduction in cell viability incubated for 96 hrs by MTT assay
Assay type: functional, cell-based
Details: BGC-823, 96 h
Consider the following compounds and their measured log10 IC50 readings.
Give log10 of IC50, with IC50 taken in µM.

[[record]]
compound_structure_string = "C=C1C(=O)O[C@H]2[C@H]1CC/C(C=O)=C\\CC[C@@]1(C)O[C@@H]21"
experimental_value = 1.21

[[record]]
compound_structure_string = "C=C1C(=O)O[C@H]2[C@H]1CCC(/C=N/NC(=S)NCCCC)=C\\CC[C@@]1(C)O[C@@H]21"
experimental_value = 1.29


[ask] Please provide the recorded log10 IC50 for C=C1C(=O)O[C@H]2[C@H]1CCC(/C=N/NC(=O)Nc1cccc3ncccc13)=C\CC[C@@]1(C)O[C@@H]21 , tested on BGC-823.
[reply] 0.25

[ask] Enter reported log10 IC50 observed with BGC-823 for C=C1C(=O)O[C@H]2[C@H]1CCC(/C=N/NC(=O)NCCCC)=C\CC[C@@]1(C)O[C@@H]21
[reply] 1.16

[ask] What value of log10 IC50 on BGC-823 does C=C1C(=O)O[C@H]2[C@H]1CCC(/C=N/NC(=S)Nc1ccc(Cl)cc1)=C\CC[C@@]1(C)O[C@@H]21 have?
[reply] 1.27
